Item-by-item account of koff
- Target: T1, human IL-6 (human, UniProt P05231 30-212)
- T1 construct: IL-6 flowed over captured antibodies
- T1 sequence (P05231 30-212 limits assumed): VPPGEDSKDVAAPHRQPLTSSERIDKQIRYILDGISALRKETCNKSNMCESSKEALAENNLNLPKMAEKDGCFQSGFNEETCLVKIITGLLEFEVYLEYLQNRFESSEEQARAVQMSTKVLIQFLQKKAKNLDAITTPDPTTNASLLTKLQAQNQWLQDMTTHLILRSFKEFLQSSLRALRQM
- Method notes: SPR Biacore, supernatant Ab on Protein A chip, 37 C
Write down the numeric answer in s⁻¹ and omit the unit.

# example entries with known answers
Binder	Observable	Measurement unit	Measured
anti-IL-6 antibody, heavy chain I51G, G66D / light chain M32L, M50D, N52S, M88Q (antibody, IgG1, V domains shown, Full IgG1 (Expi293); VL = variant III) VH: EVQLVESGGGLVQPGGSLRLSCAASGFTFSPFAMSWVRQAPGKGLEWVAKGSPGGSWTYYSDTVTDRFTFSLDTSKSTAYLQMNSLRAEDTAVYYCARQLWGYYALDIWGQGTLVTVSS VL: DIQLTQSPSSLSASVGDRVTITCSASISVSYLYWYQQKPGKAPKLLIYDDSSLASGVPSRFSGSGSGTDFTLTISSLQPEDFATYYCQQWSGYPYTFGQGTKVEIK	koff	s⁻¹	0.000912
anti-IL-6 antibody, heavy chain G66D / light chain M32L, M50D, N52S, M88Q (antibody, IgG1, V domains shown, Full IgG1 (Expi293); VL = variant III) VH: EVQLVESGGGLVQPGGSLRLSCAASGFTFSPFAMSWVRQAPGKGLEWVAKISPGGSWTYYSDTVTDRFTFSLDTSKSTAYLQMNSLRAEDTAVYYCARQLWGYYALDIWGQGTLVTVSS VL: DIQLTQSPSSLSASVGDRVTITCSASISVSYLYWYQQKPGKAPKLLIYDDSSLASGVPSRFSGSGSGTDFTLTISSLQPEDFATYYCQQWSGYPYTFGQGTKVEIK	koff	s⁻¹	0.000483
anti-IL-6 antibody, heavy chain T65Q, G66D / light chain M32L, M50D, N52S, M88Q (antibody, IgG1, V domains shown, Full IgG1 (Expi293); VL = variant III) VH: EVQLVESGGGLVQPGGSLRLSCAASGFTFSPFAMSWVRQAPGKGLEWVAKISPGGSWTYYSDTVQDRFTFSLDTSKSTAYLQMNSLRAEDTAVYYCARQLWGYYALDIWGQGTLVTVSS VL: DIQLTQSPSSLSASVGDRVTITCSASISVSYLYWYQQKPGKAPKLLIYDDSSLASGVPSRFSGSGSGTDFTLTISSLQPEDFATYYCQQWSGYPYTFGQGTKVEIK	koff	s⁻¹	0.000562

Data request: Could you share which koff value was measured for anti-IL-6 antibody, heavy chain T65R, G66D / light chain M32L, M50D, N52S, M88Q (antibody, IgG1, V domains shown, Full IgG1 (Expi293); VL = variant III) VH: EVQLVESGGGLVQPGGSLRLSCAASGFTFSPFAMSWVRQAPGKGLEWVAKISPGGSWTYYSDTVRDRFTFSLDTSKSTAYLQMNSLRAEDTAVYYCARQLWGYYALDIWGQGTLVTVSS VL: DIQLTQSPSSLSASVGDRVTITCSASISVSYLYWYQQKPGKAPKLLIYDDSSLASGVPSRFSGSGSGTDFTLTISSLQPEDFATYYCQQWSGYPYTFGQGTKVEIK ?
Data returned: 0.000532

Data request: Need koff, item anti-IL-6 antibody, heavy chain S35P, G66D / light chain M32L, M50D, N52S, M88Q (antibody, IgG1, V domains shown, Full IgG1 (Expi293); VL = variant III) VH: EVQLVESGGGLVQPGGSLRLSCAASGFTFSPFAMPWVRQAPGKGLEWVAKISPGGSWTYYSDTVTDRFTFSLDTSKSTAYLQMNSLRAEDTAVYYCARQLWGYYALDIWGQGTLVTVSS VL: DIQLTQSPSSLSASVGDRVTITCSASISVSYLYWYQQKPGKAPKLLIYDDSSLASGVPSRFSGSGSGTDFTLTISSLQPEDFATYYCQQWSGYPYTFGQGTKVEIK
Data returned: 0.00548

Data request: I have this binder here, anti-IL-6 antibody, heavy chain T63A, G66D / light chain M32L, M50D, N52S, M88Q (antibody, IgG1, V domains shown, Full IgG1 (Expi293); VL = variant III) VH: EVQLVESGGGLVQPGGSLRLSCAASGFTFSPFAMSWVRQAPGKGLEWVAKISPGGSWTYYSDAVTDRFTFSLDTSKSTAYLQMNSLRAEDTAVYYCARQLWGYYALDIWGQGTLVTVSS VL: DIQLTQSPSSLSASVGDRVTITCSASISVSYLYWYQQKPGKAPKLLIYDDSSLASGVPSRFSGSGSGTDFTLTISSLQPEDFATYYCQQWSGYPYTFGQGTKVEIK , and I need its recorded koff.
Data returned: 0.000458

Data request: Would you mind telling me what koff value was observed for anti-IL-6 antibody, heavy chain T65D, G66D / light chain M32L, M50D, N52S, M88Q (antibody, IgG1, V domains shown, Full IgG1 (Expi293); VL = variant III) VH: EVQLVESGGGLVQPGGSLRLSCAASGFTFSPFAMSWVRQAPGKGLEWVAKISPGGSWTYYSDTVDDRFTFSLDTSKSTAYLQMNSLRAEDTAVYYCARQLWGYYALDIWGQGTLVTVSS VL: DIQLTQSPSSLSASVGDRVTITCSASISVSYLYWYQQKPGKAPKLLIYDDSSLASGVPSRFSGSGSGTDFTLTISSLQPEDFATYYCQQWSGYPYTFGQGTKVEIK ?
Data returned: 0.00048

Data request: For the binder shown here, anti-IL-6 antibody, heavy chain T63Y, G66D / light chain M32L, M50D, N52S, M88Q (antibody, IgG1, V domains shown, Full IgG1 (Expi293); VL = variant III) VH: EVQLVESGGGLVQPGGSLRLSCAASGFTFSPFAMSWVRQAPGKGLEWVAKISPGGSWTYYSDYVTDRFTFSLDTSKSTAYLQMNSLRAEDTAVYYCARQLWGYYALDIWGQGTLVTVSS VL: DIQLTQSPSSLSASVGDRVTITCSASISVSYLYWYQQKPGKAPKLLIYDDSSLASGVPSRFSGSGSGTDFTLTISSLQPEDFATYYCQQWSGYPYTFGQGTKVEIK , give the reported koff.
Data returned: 0.000459

Data request: Consider the binder shown here: anti-IL-6 antibody, heavy chain T63D, G66D / light chain M32L, M50D, N52S, M88Q (antibody, IgG1, V domains shown, Full IgG1 (Expi293); VL = variant III) VH: EVQLVESGGGLVQPGGSLRLSCAASGFTFSPFAMSWVRQAPGKGLEWVAKISPGGSWTYYSDDVTDRFTFSLDTSKSTAYLQMNSLRAEDTAVYYCARQLWGYYALDIWGQGTLVTVSS VL: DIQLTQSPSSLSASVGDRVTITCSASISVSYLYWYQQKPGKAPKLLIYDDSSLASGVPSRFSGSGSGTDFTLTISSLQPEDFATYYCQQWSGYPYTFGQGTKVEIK What is its recorded koff?
Data returned: 0.000413

Data request: Any idea what koff was measured for anti-IL-6 antibody, heavy chain T65K, G66D / light chain M32L, M50D, N52S, M88Q (antibody, IgG1, V domains shown, Full IgG1 (Expi293); VL = variant III) VH: EVQLVESGGGLVQPGGSLRLSCAASGFTFSPFAMSWVRQAPGKGLEWVAKISPGGSWTYYSDTVKDRFTFSLDTSKSTAYLQMNSLRAEDTAVYYCARQLWGYYALDIWGQGTLVTVSS VL: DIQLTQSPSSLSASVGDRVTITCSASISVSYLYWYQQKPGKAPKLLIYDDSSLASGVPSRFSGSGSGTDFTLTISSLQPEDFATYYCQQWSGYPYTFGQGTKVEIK ?
Data returned: 0.000579
